TESTED TARGET: yeast urease activity (Cryptococcus neoformans)
Construct: endogenous in cells; host or cells: Cryptococcus neoformans H99 (ATCC 208821) yeasts in Christensen urea broth
MEASUREMENT PROTOCOL: Inhibition of yeast urease activity in urea (Christensen) medium, colour change (MICure)
Type: cell-based
STATED CONDITIONS: BSU series; 100% inhibition of yeast urease activity in urea medium
MEASURE NAME: MICURE (mg/L)
Respond numerically; units are mg/L and should not be typed.

Documented MICURE of `COc1ccccc1NC(=[Se])NC(=O)c1ccccc1` : 0.5

Documented MICURE of `Cc1ccc(NC(=[Se])NC(=O)c2ccccc2)cc1` : 0.5

Documented MICURE of `O=C(NC(=[Se])Nc1ccccc1)c1ccccc1` : 0.06

Documented MICURE of `O=C(NC(=[Se])Nc1ccc(Cl)cc1)c1ccccc1` : 0.25

Documented MICURE of `COc1cccc(NC(=[Se])NC(=O)c2ccccc2)c1` : 0.12

###

System: C. neoformans H99
MEASUREMENT PROTOCOL: Minimum fungicidal concentration by subculturing after MIC reading
Assay type: cell-based
STATED CONDITIONS: Cryptococcus neoformans, H99, Table S1; urea medium line
Can you tell me MFC for the items I'm about to list?

Documented MFC of `O=C(NC(=S)Nc1cccc([N+](=O)[O-])c1)c1ccccc1` : > 128 µg/mL

Documented MFC of `O=C(NC(=S)Nc1ccccc1[N+](=O)[O-])c1ccccc1` : > 128 µg/mL

Documented MFC of `CC(C)(C)c1ccc(NC(=[Se])NC(=O)c2ccccc2)cc1` : > 16 µg/mL

###

Can you tell me MICURE for the items I'm about to list?
TESTED TARGET: yeast urease activity (Cryptococcus neoformans, UniProt O13465)
Construct: endogenous in cells; host or cells: Cryptococcus neoformans H99 (ATCC 208821) yeasts in Christensen urea broth
Sequence (O13465 whole entry): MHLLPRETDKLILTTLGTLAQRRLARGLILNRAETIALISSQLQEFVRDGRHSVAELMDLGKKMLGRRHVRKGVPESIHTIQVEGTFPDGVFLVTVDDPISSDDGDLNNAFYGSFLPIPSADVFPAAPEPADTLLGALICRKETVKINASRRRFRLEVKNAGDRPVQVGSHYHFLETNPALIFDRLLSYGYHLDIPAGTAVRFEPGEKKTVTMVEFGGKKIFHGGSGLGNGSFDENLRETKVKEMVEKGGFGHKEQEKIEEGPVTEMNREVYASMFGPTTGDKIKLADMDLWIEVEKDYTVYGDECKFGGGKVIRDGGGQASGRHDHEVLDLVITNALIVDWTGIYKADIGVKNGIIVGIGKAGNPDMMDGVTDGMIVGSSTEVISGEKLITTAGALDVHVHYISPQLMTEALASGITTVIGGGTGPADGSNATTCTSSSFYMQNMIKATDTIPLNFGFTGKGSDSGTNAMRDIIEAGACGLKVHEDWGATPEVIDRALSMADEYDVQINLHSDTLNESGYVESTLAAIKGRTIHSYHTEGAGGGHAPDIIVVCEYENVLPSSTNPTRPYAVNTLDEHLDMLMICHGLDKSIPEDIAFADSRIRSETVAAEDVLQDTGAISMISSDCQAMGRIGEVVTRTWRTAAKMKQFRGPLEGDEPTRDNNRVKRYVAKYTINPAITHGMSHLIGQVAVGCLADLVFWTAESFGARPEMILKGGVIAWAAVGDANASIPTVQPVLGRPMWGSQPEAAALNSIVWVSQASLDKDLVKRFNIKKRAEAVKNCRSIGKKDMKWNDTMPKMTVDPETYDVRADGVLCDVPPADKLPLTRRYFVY
MEASUREMENT PROTOCOL: Inhibition of yeast urease activity in urea (Christensen) medium, colour change (MICure)
Assay type: cell-based
STATED CONDITIONS: BTU series; 100% inhibition of yeast urease activity in urea medium

Documented MICURE of `O=C(NC(=S)Nc1cccc(Cl)c1)c1ccccc1` : <0.25 mg/L

Documented MICURE of `O=C(NC(=S)Nc1ccccc1[N+](=O)[O-])c1ccccc1` : >128 mg/L

Documented MICURE of `Cc1ccc(NC(=S)NC(=O)c2ccccc2)cc1` : <0.25 mg/L

Documented MICURE of `O=C(NC(=S)Nc1ccc(Cl)cc1)c1ccccc1` : <0.25 mg/L

Documented MICURE of `O=C(NC(=S)Nc1cccc([N+](=O)[O-])c1)c1ccccc1` : >128 mg/L

Documented MICURE of `O=C(NC(=S)Nc1ccc(Br)cc1)c1ccccc1` : <0.25 mg/L

###

System: C. neoformans H99
MEASUREMENT PROTOCOL: Broth microdilution antifungal assay (MIC) in RPMI or urea medium
Type: cell-based
STATED CONDITIONS: Cryptococcus neoformans, H99, Table S1; urea medium; C. neoformans H99
Can you tell me MIC for the items I'm about to list?
Respond numerically; units are µg/mL and should not be typed.

Documented MIC of `Cc1ccc(NC(=[Se])NC(=O)c2ccccc2)cc1` : 0.5

Documented MIC of `CC(C)(C)c1ccc(NC(=[Se])NC(=O)c2ccccc2)cc1` : 16

Documented MIC of `O=C(NC(=[Se])Nc1ccc(Cl)cc1)c1ccccc1` : 8

Documented MIC of `O=C(NC(=[Se])Nc1cccc([N+](=O)[O-])c1)c1ccccc1` : 1
